assay: self-splicing fitness, log relative to wild type (ln ratio); higher = more splicing; Tetrahymena group I intron in knt gene, E. coli kanamycin selection, DiMSum; sequences stand for … in CUCUCU…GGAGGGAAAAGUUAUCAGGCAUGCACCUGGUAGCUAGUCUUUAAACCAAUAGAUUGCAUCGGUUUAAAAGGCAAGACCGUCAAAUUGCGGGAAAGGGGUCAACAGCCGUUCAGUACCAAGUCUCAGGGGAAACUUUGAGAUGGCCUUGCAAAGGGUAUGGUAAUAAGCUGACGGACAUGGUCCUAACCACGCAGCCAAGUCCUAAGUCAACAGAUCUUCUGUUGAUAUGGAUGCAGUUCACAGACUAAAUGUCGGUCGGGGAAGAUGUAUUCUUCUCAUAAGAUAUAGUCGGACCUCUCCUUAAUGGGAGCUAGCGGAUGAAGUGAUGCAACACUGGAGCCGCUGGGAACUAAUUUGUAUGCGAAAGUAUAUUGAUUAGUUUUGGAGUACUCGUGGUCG; conditions: 30 °C;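 also: selection with 25 µg/mL kanamycin versus none on LB agar overnight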
Experimental endpoint: self-splicing fitness (ln)

> print(dat)
          sequence.code  reported.value
1  GUGGAGCAAUAUUACGCAAA           -2.28
2  GGCGAGCAAUAUUACGAACU            -1.3
3  AGGAAGCAAUAUUACGCUCA          -0.332
4  UCGCAGCAAUAUUACGUGCU           -3.64

Fill in the blank: the reported self-splicing fitness (ln) of GGAAAGCAAUAUUACGUGUU is ____.
-2.76

Fill in the blank: the reported self-splicing fitness (ln) of UACUAGCAAUAUUACGUUGA is ____.
-3.37

Fill in the blank: the reported self-splicing fitness (ln) of CGGAAGCAAUAUUACGUGAA is ____.
-3.4

Fill in the blank: the reported self-splicing fitness (ln) of UGAUAGCAAUAUUACGGUUG is ____.
-0.902

Fill in the blank: the reported self-splicing fitness (ln) of ACCAAGCAAUAUUACGCAGU is ____.
-3.71

Fill in the blank: the reported self-splicing fitness (ln) of GCGGAGCAAUAUUACGGUGU is ____.
-3.36
